Target: T1, human CD3 on CD3+ Jurkat cells (human, UniProt P07766 23-207)
T1 construct: whole, on cells; Native CD3 complex on cells; the other CD3 chains are not specified for this assay; also called Human CD3+ Jurkat
T1 sequence (P07766 23-207): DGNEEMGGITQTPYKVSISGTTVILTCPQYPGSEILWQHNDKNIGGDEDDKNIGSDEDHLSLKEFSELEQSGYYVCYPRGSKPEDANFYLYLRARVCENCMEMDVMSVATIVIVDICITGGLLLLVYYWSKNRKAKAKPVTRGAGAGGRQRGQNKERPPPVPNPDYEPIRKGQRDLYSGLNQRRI
Experiment: flow cytometry, 100 nM IgG on CD3+ Jurkat cells, pH 7.4
quantity measured: MFI pH 7.4 (MFI)
Numeric answer only, unit MFI assumed.

Request: I'd like to know its MFI pH 7.4. The binder in question is SAD10319_P01_C01 (ADI-48621) (antibody, V domains shown, IgG; also called Ab230) VH: QVQLVQSGAEVKKPGASVKVSCKASGYTFTDYDMHWVRQAPGQRLEWMGWIDAGTGLTKYSQKFQGRVTITRDTSASTAYMELSSLRSEDTAVYYCARDHYGHYFYDVWGQGTLVTVSS VL: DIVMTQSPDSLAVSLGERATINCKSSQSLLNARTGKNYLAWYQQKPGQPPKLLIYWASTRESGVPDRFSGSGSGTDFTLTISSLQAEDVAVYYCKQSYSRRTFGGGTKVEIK
Result: 49

Request: I'd like to know its MFI pH 7.4. The binder in question is SAD10318_P04_C10 (ADI-48612) (antibody, V domains shown, IgG; also called Ab210) VH: QVQLVQSGAEVKKPGASVKVSCKASGFNIKDYYMHWVRQAPGQRLEWMGWIDLENANTIYDAKFQGRVTITRDTSASTAYMELSSLRSEDTAVYYCARDAYGRYHHDVWGQGTLVTVSS VL: DIVMTQSPDSLAVSLGERATINCKSSQSLLNARTGHNHLAWYQQKPGQPPKLLIYWASTRESGVPDRFSGSGSGTDFTLTISSLQAEDVAVYYCHQSYHRRTFGGGTKVEIK
Result: 50
